- experiment.notes: Human plasma pharmacokinetics, single ascending dose study
- Assay type: in vivo, human healthy subjects
- experimental.context: 100 mg single oral dose, geometric mean (CV%)
readout.type: Cmax (nM)
Quick note: give the figure in nM, leave out the unit.

Query: Could you share which Cmax value was measured for `C#C[C@@H]1CN(C(=O)[C@H](CC(C)C)NC(=O)c2ccc(-c3nc(N4CCN(C)CC4)sc3F)cc2)[C@@H]2C(=O)CO[C@H]12` ?
Reply: 293

====

- experiment.notes: Monkey plasma pharmacokinetics, single oral dose
- Type: in vivo, cynomolgus monkeys (Macaca fascicularis)
- experimental.context: 30 µmol/kg p.o. single dose, geometric mean (CV%)
readout.type: Cmax (nM)
Quick note: give the figure in nM, leave out the unit.

Query: Could you share which Cmax value was measured for C#C[C@@H]1CN(C(=O)[C@H](CC(C)C)NC(=O)c2ccc(-c3nc(N4CCN(C)CC4)sc3F)cc2)[C@@H]2C(=O)CO[C@H]12 [MIV-711] ?
Reply: 923
